Source of measurements: patent US20240109930A1

Assignment: determine reported IC50 for the given compounds.
Biological target: human Gal-1 (hGal-1) (Homo sapiens, UniProt P09382, C131S/C17S/C43S/C61S/C89S)
Test: Competitive binding assay: biotinylated hGal-1 binding to microplate-adsorbed asialofetuin (ASF)
Conditions: IC50 values from several measurements given as geomean
// units = µM; emit number, no label

Look up and state reported IC50 for CO[C@@H]1[C@@H](n2cc(-c3ccc(Cl)c(F)c3F)nn2)[C@@H](O)[C@@H](CO)O[C@@H]1Cc1cn(C2CCCCC2(F)F)nn1 (single isomer, unassigned) [Example 2.1.80.B]
1.74

Look up and state reported IC50 for CO[C@@H]1[C@@H](n2cc(-c3ccc(Br)c(F)c3F)nn2)[C@@H](O)[C@@H](CO)O[C@@H]1Cc1cn([C@@H]2CCCC2(F)F)nn1 [Example 4.1.64.A]
1.74

Look up and state reported IC50 for CO[C@@H]1[C@@H](n2cc(-c3ccc(Cl)c(F)c3F)nn2)[C@@H](O)[C@@H](CO)O[C@@H]1Cc1cn([C@H]2CCOC[C@H]2F)nn1 [Example 2.1.66.B]
2.9

Look up and state reported IC50 for CO[C@@H]1[C@@H](n2cc(-c3ccc(Cl)c(F)c3F)nn2)[C@@H](O)[C@@H](CO)O[C@@H]1Cc1cn([C@@H]2COCC[C@H]2F)nn1 [Example 2.1.65.A]
1.8

Look up and state reported IC50 for CO[C@@H]1[C@@H](n2cc(-c3ccc(C)c(F)c3F)nn2)[C@@H](O)[C@@H](CO)O[C@@H]1Cn1cc(C2(C)COC2)nn1 [Ex 1.2.6.]
2.97

###

A set of compounds tested on UniProt P17931, with measured pIC50:
By convention, pIC50 is the negative base-10 log of a molar concentration.

Look up and state reported pIC50 for CO[C@@H]1[C@@H](n2cc(-c3ccc(Cl)c(F)c3F)nn2)[C@@H](O)[C@@H](CO)O[C@@H]1Cc1cn(C2(CF)CC2(F)F)nn1 (stereo partly drawn)
7.70

Look up and state reported pIC50 for CO[C@@H]1[C@@H](n2cc(-c3ccc(C)c(F)c3F)nn2)[C@@H](O)[C@@H](CO)O[C@@H]1Cn1cc(C2(C)COC2)nn1
7.40

Look up and state reported pIC50 for CO[C@@H]1[C@@H](n2cc(-c3ccc(Br)c(F)c3F)nn2)[C@@H](O)[C@@H](CO)O[C@@H]1Cn1cc(C2(O)CC2)nn1
6.89

Look up and state reported pIC50 for CO[C@@H]1[C@@H](n2cc(-c3ccc(F)c(F)c3F)nn2)[C@@H](O)[C@@H](CO)O[C@@H]1Cc1cn(C2(CO)CC2)nn1
7.22

Look up and state reported pIC50 for CO[C@@H]1[C@@H](n2cc(-c3ccc(Cl)c(F)c3F)nn2)[C@@H](O)[C@@H](CO)O[C@@H]1Cc1cn([C@H]2CCOC[C@@H]2F)nn1
8.00

Look up and state reported pIC50 for CO[C@@H]1[C@@H](n2cc(-c3ccc(Cl)c(F)c3F)nn2)[C@@H](O)[C@@H](CO)O[C@@H]1Cc1cn(C2CC3(CC3)C2)nn1
7.00

Look up and state reported pIC50 for COCC1(n2cc(C[C@H]3O[C@H](CO)[C@H](O)[C@H](n4cc(-c5ccc(C)c(F)c5F)nn4)[C@H]3OC)nn2)COC1
7.40

Look up and state reported pIC50 for CO[C@@H]1[C@@H](n2cc(-c3ccc(Cl)c(F)c3F)nn2)[C@@H](O)[C@@H](CO)O[C@@H]1Cc1cn(C2CCC2(F)F)nn1 (single isomer, unassigned) [Example 2.1.63.A]
7.22

Look up and state reported pIC50 for CO[C@@H]1[C@@H](n2cc(-c3ccc(F)c(F)c3F)nn2)[C@@H](O)[C@@H](CO)O[C@@H]1Cc1cn(C23CC(OC)(C2)C3)nn1
7.52

Look up and state reported pIC50 for CO[C@@H]1[C@@H](n2cc(-c3ccc(Cl)c(F)c3F)nn2)[C@@H](O)[C@@H](CO)O[C@@H]1Cc1cn(C2(C(F)F)CC2)nn1
7.70

Look up and state reported pIC50 for CO[C@@H]1[C@@H](n2cc(-c3ccc(Br)c(F)c3F)nn2)[C@@H](O)[C@@H](CO)O[C@@H]1Cc1cn(C2(CF)CCC2)nn1
7.22

Look up and state reported pIC50 for CO[C@@H]1[C@@H](n2cc(-c3ccc(Br)c(F)c3F)nn2)[C@@H](O)[C@@H](CO)O[C@@H]1Cc1cn(C2(C(F)F)CCC2)nn1
7.52

Look up and state reported pIC50 for CO[C@@H]1[C@@H](n2cc(-c3ccc(C)c(F)c3F)nn2)[C@@H](O)[C@@H](CO)O[C@@H]1Cc1cn(C2[C@H]3CCC[C@@H]23)nn1 (stereo partly drawn)
7.30

Look up and state reported pIC50 for CO[C@@H]1[C@@H](n2cc(-c3ccc(Br)c(F)c3F)nn2)[C@@H](O)[C@@H](CO)O[C@@H]1Cn1cc(C2(O)CCCC2)nn1
7.00

Look up and state reported pIC50 for CO[C@@H]1[C@@H](n2cc(-c3ccc(Cl)c(F)c3F)nn2)[C@@H](O)[C@@H](CO)O[C@@H]1Cn1cc(C2(C)CCC2)nn1
7.52

Look up and state reported pIC50 for CO[C@@H]1[C@@H](n2cc(-c3ccc(Cl)c(F)c3F)nn2)[C@@H](O)[C@@H](CO)O[C@@H]1Cc1cn(C2CC2C(C)C)nn1 (stereo partly drawn)
6.80

Look up and state reported pIC50 for CO[C@@H]1[C@@H](n2cc(-c3ccc(Br)c(F)c3F)nn2)[C@@H](O)[C@@H](CO)O[C@@H]1Cc1cn(C2(CF)CC2)nn1
7.52

Look up and state reported pIC50 for CO[C@@H]1[C@@H](n2cc(-c3ccc(F)c(F)c3F)nn2)[C@@H](O)[C@@H](CO)O[C@@H]1Cc1cn(C(C)(C)C(F)F)nn1
7.52
